Target: OR10/OR7 (Anopheles gambiae, UniProt B5U0U7+Q7QCC7)
Sequence (Q7QCC7 whole entry): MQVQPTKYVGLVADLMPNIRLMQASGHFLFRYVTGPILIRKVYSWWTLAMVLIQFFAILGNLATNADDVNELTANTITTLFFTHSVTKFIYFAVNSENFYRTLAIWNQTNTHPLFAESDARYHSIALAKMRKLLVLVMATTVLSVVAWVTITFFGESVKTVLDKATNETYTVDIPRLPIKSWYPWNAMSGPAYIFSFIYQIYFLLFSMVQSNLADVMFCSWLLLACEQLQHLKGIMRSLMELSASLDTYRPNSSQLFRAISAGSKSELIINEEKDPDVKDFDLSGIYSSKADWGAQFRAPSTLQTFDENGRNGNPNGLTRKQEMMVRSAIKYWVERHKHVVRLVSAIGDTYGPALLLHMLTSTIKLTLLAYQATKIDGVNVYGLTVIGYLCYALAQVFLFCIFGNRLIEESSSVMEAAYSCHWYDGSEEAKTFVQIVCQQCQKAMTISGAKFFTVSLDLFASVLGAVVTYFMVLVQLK
Sequence (B5U0U7 entry or part of it): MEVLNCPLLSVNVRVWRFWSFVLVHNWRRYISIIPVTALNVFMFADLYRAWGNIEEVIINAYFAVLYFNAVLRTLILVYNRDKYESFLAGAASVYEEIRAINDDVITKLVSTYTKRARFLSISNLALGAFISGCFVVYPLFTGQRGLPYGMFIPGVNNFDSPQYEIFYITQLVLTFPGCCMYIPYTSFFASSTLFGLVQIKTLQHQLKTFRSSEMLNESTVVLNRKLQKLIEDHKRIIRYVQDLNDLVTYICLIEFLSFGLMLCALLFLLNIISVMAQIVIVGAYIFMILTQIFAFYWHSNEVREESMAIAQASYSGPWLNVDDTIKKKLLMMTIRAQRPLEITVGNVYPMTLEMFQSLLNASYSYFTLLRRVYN
Assay: Ca2+-imaging of stable HEK293T cell line OR10/OR7
Format: cell-based
Conditions: Table B; read-out: IC50 OR10
value kind: IC50

Example results:
- compound: "Cc1ccc(CN(CCc2ccccc2)C(=O)CN(C(=O)NC(C)(C)C)C(C)C)o1"
  target under test: "OR10/OR7 (Anopheles gambiae, UniProt B5U0U7+Q7QCC7)"
  IC50: "< 0.1 µM"
- compound: "COc1ccc(-n2c(Cc3ccccc3)nnc2SCCCC(=O)N2CCN(C(=O)c3ccc(C(F)(F)F)cc3)C(C)C2)cc1 (stereo not shown)"
  target under test: "OR10/OR7 (Anopheles gambiae, UniProt B5U0U7+Q7QCC7)"
  IC50: "> 1 µM"
- compound: "CC(=O)OCC(=O)NCC1Cc2cc(Oc3ccccc3)ccc2O1 (stereo not shown)"
  target under test: "OR10/OR7 (Anopheles gambiae, UniProt B5U0U7+Q7QCC7)"
  IC50: "< 0.1 µM"

Exam item: Quick check: IC50 of "CCOc1ccccc1C(=O)NNC(=O)COc1cc(C)cc(C)c1" ?
Marked response: > 1 µM

Data credit: patent US20130324522A1
